species on record: Homo sapiens; assay: Selectivity index, ratio of IC50 for inhibition of p38alpha (unknown origin) to IC50 for inhibition of TNNI3K (unknown origin)
Measured Ratio IC50, listed per entry.
readout_name: Ratio IC50

[[record]]
substance_smiles = "CNc1cc(Oc2c(Cl)cc(NC(=O)Nc3cccc(C(F)(F)F)c3)cc2Cl)ncn1"
recorded_result = 80

[[record]]
substance_smiles = "O=C(Nc1ccc(Oc2ncnc3ccccc23)cc1)Nc1cccc(C(F)(F)F)c1"
recorded_result = 1.6

[[record]]
substance_smiles = "CNc1cc(Oc2ccc(NC(=O)Nc3cccc(C(F)F)c3)cc2)ncn1"
recorded_result = 62

[[record]]
substance_smiles = "O=C(Nc1ccc(Oc2ccnc3[nH]ccc23)cc1)Nc1cccc(C(F)(F)F)c1"
recorded_result = 1

[[record]]
substance_smiles = "CNc1cc(Oc2cc(C)c(NC(=O)Nc3cccc(C(F)(F)F)c3)cc2C)ncn1"
recorded_result = 160

[[record]]
substance_smiles = "COc1cc2ncnc(Oc3ccc(NC(=O)Nc4cccc(C(F)(F)F)c4)cc3)c2cc1OC"
recorded_result = 32

[[record]]
substance_smiles = "CCc1cc(NC(=O)Nc2cccc(C(F)(F)F)c2)cc(Cl)c1Oc1cc(NC)ncn1"
recorded_result = "> 160"

[[record]]
substance_smiles = "CNc1cc(Oc2ccc(NC(=O)Nc3cccc(C(C)(F)F)c3)cc2)ncn1"
recorded_result = 25

[[record]]
substance_smiles = "CNc1cc(Oc2ccc(NC(=O)Nc3ccccc3)cc2)ncn1"
recorded_result = "> 4"

[[record]]
substance_smiles = "O=C(Nc1ccc(Oc2ccnc3ccccc23)cc1)Nc1cccc(C(F)(F)F)c1"
recorded_result = 1.6


----------
organism: Homo sapiens; assay: Selectivity index, ratio of IC50 for inhibition of p38alpha (unknown origin) to IC50 for inhibition of TNNI3K (unknown origin)
The threshold is 5. Values of Ratio IC50 beneath it are tagged fulfilled; values meeting or exceeding it are tagged not fulfilled.

[[record]]
substance_smiles = "CCc1cccc(NC(=O)Nc2ccc(Oc3cc(NC)ncn3)cc2)c1"
label_value = "not fulfilled"

[[record]]
substance_smiles = "CC(C)Nc1cc(Oc2ccc(NC(=O)Nc3cccc(C(F)(F)F)c3)cc2)ncn1"
label_value = "not fulfilled"

[[record]]
substance_smiles = "CNc1cc(Oc2ccc(NC(=O)Nc3cccc(C(F)(F)F)c3)cc2)ncn1"
label_value = "not fulfilled"

[[record]]
substance_smiles = "COc1ccc2ncnc(Oc3ccc(NC(=O)Nc4cccc(C(F)(F)F)c4)cc3)c2c1"
label_value = "not fulfilled"

[[record]]
substance_smiles = "COc1cc(Oc2ccc(NC(=O)Nc3cccc(C(F)(F)F)c3)cc2)ncn1"
label_value = "fulfilled"

[[record]]
substance_smiles = "Cc1cc(Oc2ccc(NC(=O)Nc3cccc(C(F)(F)F)c3)cc2)c2ccccc2n1"
label_value = "fulfilled"

[[record]]
substance_smiles = "O=C(Nc1ccc(Oc2ccncn2)cc1)Nc1cccc(C(F)(F)F)c1"
label_value = "fulfilled"

[[record]]
substance_smiles = "CNc1cc(Oc2ccc(NC(=O)Nc3cccc(CF)c3)cc2)ncn1"
label_value = "not fulfilled"

[[record]]
substance_smiles = "CNc1nccc(Oc2ccc(NC(=O)Nc3cccc(C(F)(F)F)c3)cc2)n1"
label_value = "fulfilled"


----------
target: Mitogen-activated protein kinase 14 (Homo sapiens, UniProt Q16539); assay: Inhibition of p38alpha (unknown origin)
Sequence (Q16539 whole entry): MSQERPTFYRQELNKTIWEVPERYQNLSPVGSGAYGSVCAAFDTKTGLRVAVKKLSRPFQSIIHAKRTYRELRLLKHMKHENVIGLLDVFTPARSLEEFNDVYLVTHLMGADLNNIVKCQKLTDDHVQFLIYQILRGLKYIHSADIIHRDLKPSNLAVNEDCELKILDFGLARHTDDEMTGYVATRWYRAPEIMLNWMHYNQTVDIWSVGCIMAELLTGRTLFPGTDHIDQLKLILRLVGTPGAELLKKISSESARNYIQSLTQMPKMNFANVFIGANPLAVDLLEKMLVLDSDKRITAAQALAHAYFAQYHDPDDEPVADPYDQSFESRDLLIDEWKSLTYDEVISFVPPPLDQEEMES
Measured IC50, listed per entry.
readout_name: IC50 (nM)

[[record]]
substance_smiles = "CNc1cc(Oc2c(C)cc(NC(=O)Nc3cccc(C(F)(F)F)c3)cc2Cl)ncn1"
readout_name = "IC50"
recorded_result = 2000

[[record]]
substance_smiles = "CNc1cc(Oc2ccc(NC(=O)Nc3cccc(C(C)(F)F)c3)cc2)ncn1"
readout_name = "IC50"
recorded_result = 1000

[[record]]
substance_smiles = "O=C(Nc1ccc(Oc2ncnc3[nH]ccc23)cc1)Nc1cccc(C(F)(F)F)c1"
readout_name = "IC50"
recorded_result = 500

[[record]]
substance_smiles = "O=C(O)Cc1cccc(Nc2cc(Oc3ccc(NC(=O)Nc4cccc(C(F)(F)F)c4)cc3)ncn2)c1"
readout_name = "IC50"
recorded_result = 400

[[record]]
substance_smiles = "O=C(Nc1ccc(Oc2cc(O)ncn2)cc1)Nc1cccc(C(F)(F)F)c1"
readout_name = "IC50"
recorded_result = 1600

[[record]]
substance_smiles = "CNc1cc(Oc2ccc(NC(=O)Nc3cccc(C(F)(F)F)c3)c(F)c2F)ncn1"
readout_name = "IC50"
recorded_result = 160

[[record]]
substance_smiles = "CCc1cc(NC(=O)Nc2cccc(C(F)(F)F)c2)cc(Cl)c1Oc1cc(NC)ncn1"
readout_name = "IC50"
recorded_result = 1600

[[record]]
substance_smiles = "CNc1cc(Oc2c(C)cc(NC(=O)Nc3cccc(C(F)(F)F)c3)c3ccccc23)ncn1"
readout_name = "IC50"
recorded_result = 130

[[record]]
substance_smiles = "CNc1cc(Oc2ccc(NC(=O)Nc3cccc(C(F)(F)F)c3)cc2)ncn1"
readout_name = "IC50"
recorded_result = 1000


----------
Measured pIC50, listed per entry.
Target: Serine/threonine-protein kinase TNNI3K (Homo sapiens, UniProt Q59H18)
Sequence (Q59H18 whole entry): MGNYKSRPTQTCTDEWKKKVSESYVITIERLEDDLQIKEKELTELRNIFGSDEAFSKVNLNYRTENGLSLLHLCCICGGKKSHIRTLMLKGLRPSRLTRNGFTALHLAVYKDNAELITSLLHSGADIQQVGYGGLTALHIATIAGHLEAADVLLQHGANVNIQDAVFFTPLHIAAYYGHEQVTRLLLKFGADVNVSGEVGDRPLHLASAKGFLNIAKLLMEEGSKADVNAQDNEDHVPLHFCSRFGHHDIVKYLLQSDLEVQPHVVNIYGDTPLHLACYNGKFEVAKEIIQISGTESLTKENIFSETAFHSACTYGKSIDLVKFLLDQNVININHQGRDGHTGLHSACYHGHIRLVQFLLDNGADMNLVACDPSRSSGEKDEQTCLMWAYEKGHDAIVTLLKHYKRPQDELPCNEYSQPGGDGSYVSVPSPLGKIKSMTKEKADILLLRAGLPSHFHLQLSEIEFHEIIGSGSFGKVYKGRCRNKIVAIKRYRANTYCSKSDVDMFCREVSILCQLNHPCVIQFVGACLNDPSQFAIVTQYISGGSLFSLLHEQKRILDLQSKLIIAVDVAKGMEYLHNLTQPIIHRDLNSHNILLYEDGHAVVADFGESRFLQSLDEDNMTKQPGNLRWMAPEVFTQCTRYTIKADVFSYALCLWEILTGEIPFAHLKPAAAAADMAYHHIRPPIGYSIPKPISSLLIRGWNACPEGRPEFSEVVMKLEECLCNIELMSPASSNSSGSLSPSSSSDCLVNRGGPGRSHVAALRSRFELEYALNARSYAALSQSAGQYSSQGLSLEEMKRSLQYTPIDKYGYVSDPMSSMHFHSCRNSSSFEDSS
Test: Inhibition of human myc-TNNI3K expressed in HEK-MSR2 cells assessed as reduction in TNNI3K autophosphorylation preincubated for 30 mins followed by pervanadate addition and measured after 20 mins by DELFIA
Type: cell-based
pIC50: −log10 of the molar value.
readout_name: pIC50

[[record]]
substance_smiles = "CC(C)(O)CNc1cc(Oc2ccc(NC(=O)Nc3cccc(C(F)(F)F)c3)cc2)ncn1"
recorded_result = 7.30

[[record]]
substance_smiles = "CNc1cc(Oc2c(C)cc(NC(=O)Nc3cccc(C(F)(F)F)c3)cc2C)ncn1"
recorded_result = 8.10

[[record]]
substance_smiles = "Nc1cc(Oc2ccc(NC(=O)Nc3cccc(C(F)(F)F)c3)cc2)ncn1"
recorded_result = 7.80

[[record]]
substance_smiles = "O=C(Nc1ccc(Oc2cc(NCCO)ncn2)cc1)Nc1cccc(C(F)(F)F)c1"
recorded_result = 7.40

[[record]]
substance_smiles = "CCc1cc(NC(=O)Nc2cccc(C(F)(F)F)c2)cc(Cl)c1Oc1cc(NC)ncn1"
recorded_result = 7.00

[[record]]
substance_smiles = "CNc1cc(Oc2ccc(NC(=O)Nc3cccc(C(F)(F)F)c3)cc2)ncn1"
recorded_result = 7.70

[[record]]
substance_smiles = "CNc1cc(Oc2c(Cl)cc(NC(=O)Nc3cccc(C(F)(F)F)c3)cc2Cl)ncn1"
recorded_result = 7.00


----------
Measured IC50, listed per entry.
molecular target: Vascular endothelial growth factor receptor 2 (Homo sapiens, UniProt P35968)
Sequence (P35968 whole entry): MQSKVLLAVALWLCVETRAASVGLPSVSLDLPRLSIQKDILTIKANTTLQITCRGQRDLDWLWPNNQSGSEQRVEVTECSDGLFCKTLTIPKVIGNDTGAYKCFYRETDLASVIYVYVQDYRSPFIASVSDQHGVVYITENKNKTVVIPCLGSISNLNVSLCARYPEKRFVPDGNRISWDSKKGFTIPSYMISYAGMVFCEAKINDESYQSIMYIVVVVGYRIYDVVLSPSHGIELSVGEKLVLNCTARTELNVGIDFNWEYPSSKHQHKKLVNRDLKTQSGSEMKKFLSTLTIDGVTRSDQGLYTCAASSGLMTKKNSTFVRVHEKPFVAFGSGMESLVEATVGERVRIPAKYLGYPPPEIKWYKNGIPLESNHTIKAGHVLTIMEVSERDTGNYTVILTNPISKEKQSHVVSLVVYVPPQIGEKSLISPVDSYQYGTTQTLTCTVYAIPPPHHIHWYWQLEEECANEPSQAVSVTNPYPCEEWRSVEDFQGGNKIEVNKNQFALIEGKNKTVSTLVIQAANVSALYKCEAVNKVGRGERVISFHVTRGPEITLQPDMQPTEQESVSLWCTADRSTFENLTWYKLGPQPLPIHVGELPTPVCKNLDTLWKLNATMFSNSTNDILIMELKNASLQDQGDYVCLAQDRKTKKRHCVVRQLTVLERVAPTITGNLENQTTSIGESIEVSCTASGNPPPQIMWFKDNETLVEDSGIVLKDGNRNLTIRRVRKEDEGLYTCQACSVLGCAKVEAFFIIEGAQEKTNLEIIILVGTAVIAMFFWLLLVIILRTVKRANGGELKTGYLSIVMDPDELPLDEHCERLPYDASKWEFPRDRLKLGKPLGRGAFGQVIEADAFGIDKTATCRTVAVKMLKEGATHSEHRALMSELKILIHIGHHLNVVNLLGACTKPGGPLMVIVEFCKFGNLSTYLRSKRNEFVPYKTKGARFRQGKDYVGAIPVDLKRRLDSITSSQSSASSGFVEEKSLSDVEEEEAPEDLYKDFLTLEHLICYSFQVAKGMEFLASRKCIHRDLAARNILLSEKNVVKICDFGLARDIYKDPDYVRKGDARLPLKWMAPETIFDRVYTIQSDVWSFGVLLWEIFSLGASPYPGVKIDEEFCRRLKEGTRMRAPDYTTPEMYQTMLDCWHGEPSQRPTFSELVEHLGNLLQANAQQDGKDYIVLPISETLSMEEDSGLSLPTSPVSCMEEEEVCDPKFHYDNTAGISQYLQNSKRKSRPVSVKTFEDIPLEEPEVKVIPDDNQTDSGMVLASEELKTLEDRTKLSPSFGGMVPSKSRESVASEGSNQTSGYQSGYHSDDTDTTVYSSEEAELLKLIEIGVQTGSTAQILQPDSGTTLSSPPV
readout_name: IC50 (nM)

[[record]]
substance_smiles = "CNc1cc(Oc2c(F)cc(NC(=O)Nc3cccc(C(F)(F)F)c3)cc2F)ncn1"
assayed_system = "Vascular endothelial growth factor receptor 2 (Homo sapiens, UniProt P35968)"
readout_name = "IC50"
recorded_result = 50

[[record]]
substance_smiles = "COc1ccc2ncnc(Oc3ccc(NC(=O)Nc4cccc(C(F)(F)F)c4)cc3)c2c1"
assayed_system = "Vascular endothelial growth factor receptor 2 (Homo sapiens, UniProt P35968)"
readout_name = "IC50"
recorded_result = 10

[[record]]
substance_smiles = "O=C(Nc1ccc(Oc2ccnc3ccccc23)cc1)Nc1cccc(C(F)(F)F)c1"
assayed_system = "Vascular endothelial growth factor receptor 2 (Homo sapiens, UniProt P35968)"
readout_name = "IC50"
recorded_result = 5

[[record]]
substance_smiles = "CNc1cc(Oc2ccc(NC(=O)Nc3ccccc3)cc2)ncn1"
assayed_system = "Vascular endothelial growth factor receptor 2 (Homo sapiens, UniProt P35968)"
readout_name = "IC50"
recorded_result = 6300

[[record]]
substance_smiles = "CNc1cc(Oc2c(C)cc(NC(=O)Nc3cccc(C(F)(F)F)c3)c3ccccc23)ncn1"
assayed_system = "Vascular endothelial growth factor receptor 2 (Homo sapiens, UniProt P35968)"
readout_name = "IC50"
recorded_result = 160

[[record]]
substance_smiles = "COc1cc(Oc2ccc(NC(=O)Nc3cccc(C(F)(F)F)c3)cc2)ncn1"
assayed_system = "Vascular endothelial growth factor receptor 2 (Homo sapiens, UniProt P35968)"
readout_name = "IC50"
recorded_result = 400

[[record]]
substance_smiles = "CNc1cc(Oc2ccc(NC(=O)Nc3cccc(C(C)(F)F)c3)cc2)ncn1"
assayed_system = "Vascular endothelial growth factor receptor 2 (Homo sapiens, UniProt P35968)"
readout_name = "IC50"
recorded_result = 40

[[record]]
substance_smiles = "O=C(O)Cc1cccc(Nc2cc(Oc3ccc(NC(=O)Nc4cccc(C(F)(F)F)c4)cc3)ncn2)c1"
assayed_system = "Vascular endothelial growth factor receptor 2 (Homo sapiens, UniProt P35968)"
readout_name = "IC50"
recorded_result = 0.4

[[record]]
substance_smiles = "CNc1nccc(Oc2ccc(NC(=O)Nc3cccc(C(F)(F)F)c3)cc2)n1"
assayed_system = "Vascular endothelial growth factor receptor 2 (Homo sapiens, UniProt P35968)"
readout_name = "IC50"
recorded_result = 32

[[record]]
substance_smiles = "CNc1cc(Oc2ccc(NC(=O)Nc3cccc(C)c3)cc2)ncn1"
assayed_system = "Vascular endothelial growth factor receptor 2 (Homo sapiens, UniProt P35968)"
readout_name = "IC50"
recorded_result = 800

[[record]]
substance_smiles = "O=C(Nc1ccc(Oc2ccncc2)cc1)Nc1cccc(C(F)(F)F)c1"
assayed_system = "Vascular endothelial growth factor receptor 2 (Homo sapiens, UniProt P35968)"
readout_name = "IC50"
recorded_result = 20

[[record]]
substance_smiles = "Cc1cc(Oc2ccc(NC(=O)Nc3cccc(C(F)(F)F)c3)cc2)ncn1"
assayed_system = "Vascular endothelial growth factor receptor 2 (Homo sapiens, UniProt P35968)"
readout_name = "IC50"
recorded_result = 63

